Measured on: Cathepsin L (UniProt P07711 114-333)
Sequence (P07711 114-333 limits assumed): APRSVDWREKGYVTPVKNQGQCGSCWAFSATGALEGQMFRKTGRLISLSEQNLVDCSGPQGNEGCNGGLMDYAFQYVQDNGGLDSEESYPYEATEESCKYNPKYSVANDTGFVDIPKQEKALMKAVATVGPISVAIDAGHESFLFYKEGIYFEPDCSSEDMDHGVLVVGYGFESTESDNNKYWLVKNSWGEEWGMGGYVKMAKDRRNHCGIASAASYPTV
Experiment: fluorescence-based enzyme inhibition assay
Positions of bridges follow the written chain, without caps; N, C: chain ends. No end group written: not given here. alpha,alpha'‑meta‑xylylene = alpha,alpha'-meta-xylylene linker (from a,a'-dibromo-meta-xylene) bridging two cysteines via bis-thioether
Catalogue of Ki readings, one per entry.
Observable: Ki (µM)

Binder | Unit tag | Observed value
SCEVVCKPTGL (linker 2-6 via alpha,alpha'‑meta‑xylylene) [SCEVVCKPTGL (SEQ ID NO:39)] | µM | 48
QCEVVCKMTGL (linker 2-6 via alpha,alpha'‑meta‑xylylene) [QCEVVCKMTGL (SEQ ID NO:34)] | µM | 46.2
